Target: Gal3S6S(b1-4)GlcNAc6S
Experiment: glycan array binding signal (z-score within array); higher = stronger binding
Settings: glycan notation: IUPAC condensed, linker removed
This excerpt belongs to a sample that is enriched for the strongest signals.
value type: glycan array binding signal (z-score)

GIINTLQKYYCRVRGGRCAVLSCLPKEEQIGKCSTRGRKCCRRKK [Beta-Defensin 3 (Homo sapiens), P81534]	3.11

Here's the next entry for you.
Request: Quick one: glycan array binding signal (z-score) of MGL (Homo sapiens), Q8IUN9 (protein) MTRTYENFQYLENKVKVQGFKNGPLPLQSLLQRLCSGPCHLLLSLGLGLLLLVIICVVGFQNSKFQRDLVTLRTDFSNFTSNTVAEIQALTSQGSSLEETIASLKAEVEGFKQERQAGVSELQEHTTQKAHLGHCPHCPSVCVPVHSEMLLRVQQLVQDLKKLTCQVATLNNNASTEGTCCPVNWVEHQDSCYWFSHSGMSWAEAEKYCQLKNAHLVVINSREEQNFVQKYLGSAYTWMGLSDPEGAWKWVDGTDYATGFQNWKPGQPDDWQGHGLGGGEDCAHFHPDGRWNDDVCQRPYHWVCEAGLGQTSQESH ?
Response: -0.242
